Measured values drawn from patent US20250000991A1 for this set.

- system-under-test: T1, human nectin-4 on cells (human, UniProt Q96NY8 32-510)
- T1 sequence: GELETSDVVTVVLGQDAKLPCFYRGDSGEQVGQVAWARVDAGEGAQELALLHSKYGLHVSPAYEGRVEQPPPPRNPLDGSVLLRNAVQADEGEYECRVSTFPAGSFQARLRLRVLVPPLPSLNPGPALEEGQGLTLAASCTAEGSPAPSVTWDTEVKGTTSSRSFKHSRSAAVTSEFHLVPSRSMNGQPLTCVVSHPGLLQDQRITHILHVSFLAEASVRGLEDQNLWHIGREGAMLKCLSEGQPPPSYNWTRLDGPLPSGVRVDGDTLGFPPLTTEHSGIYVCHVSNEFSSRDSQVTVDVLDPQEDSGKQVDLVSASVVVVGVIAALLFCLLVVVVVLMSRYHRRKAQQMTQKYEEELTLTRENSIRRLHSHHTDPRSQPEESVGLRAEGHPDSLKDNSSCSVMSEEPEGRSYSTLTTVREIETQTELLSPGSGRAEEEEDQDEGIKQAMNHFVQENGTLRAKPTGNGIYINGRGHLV
- measurement-description: cell-based or functional assay
Each item that follows carries a reported Cytotoxicity IC50, NCI H1781 cells.
Please give a number only; it is taken to be in pM.

The examples below pair each entry with its known result.
binder | Cytotoxicity IC50, NCI H1781 cells / pM
Ab4 ADC (Ab4 conjugated as in Formula XI, DAR of 8) (antibody, human IgG1, kappa, L234A L235A, V domains shown, camptothecin analog linker-payload of Formula XI on cysteine thiols after full reduction, DAR of 8 per antibody; positions not given, Antibody-drug conjugate of Ab4; also called Ab4 (ADC column)) VH: QVQLQESGPGLVKPSETLSLTCTVSGGSISGYYWSWIRQPPGKGLEWIGYIYYSGSTNYNPSLKSRVTISVDTSKNQFSLKLSSVTAADTAVYYCARLGIFFDAFDIWGQGTLVTVSS VL: DIQLTQSPSFLSASVGDRVTITCRASQGISSYLAWYQQKPGKAPKLLIYAASTLQSGVPSRFSGSGSGTEFTLTISSLQPEDFATYYCQQFNSYPWTFGQGTKVEIKR | 311
Ab3 ADC (Ab3 conjugated as in Formula XI, DAR of 8) (antibody, human IgG1, kappa, L234A L235A, V domains shown, camptothecin analog linker-payload of Formula XI on cysteine thiols after full reduction, DAR of 8 per antibody; positions not given, Antibody-drug conjugate of Ab3; also called Ab3 (ADC column)) VH: EVQLVESGGGLVKPGGSLRLSCAASGFNLNHYNMNWVRQAPGKGLEWVSSVSSGGGFRYYADSVRGRFTISRDNAKNSLYLQMNSLRAEDTAVYYCARGAVFHDAFDIWGQGTLVTVSS VL: DIQLTQSPSFLSASVGDRVTITCRASQDISSYLAWYQQKPGKAPKLLIYVASTLQSGVPSRFSGSGSGTEFTLTISSLQPEDFATYYCQQINSYPFTFGQGTKVEIKR | 55.3
Ab8 ADC (Ab8 conjugated as in Formula XI, DAR of 8) (antibody, human IgG1, lambda, L234A L235A, V domains shown, camptothecin analog linker-payload of Formula XI on cysteine thiols after full reduction, DAR of 8 per antibody; positions not given, Antibody-drug conjugate of Ab8; also called Ab8 (ADC column)) VH: QVQLVQSGAEVKKPGASVKVSCKASGYTFTSYYIHWVRQAPGQGLEWMGIINPISGRTSSAQKFQGRVTMTRDTSTSTVYMELSSLRSEDTAVYYCAKEGVGGELLRAFDIWGQGTLVTVSS VL: QSVLTQPPSVSEAPRQRVTISCSGSSSNIGNNAVNWYQQLPGKAPKLLIYYDDLLPSGVSDRFSGSKSGTSASLAISGLQSEDEADYYCAAWDDSLNGFVFGGGTKLTVLG | 57.2
Ab7 ADC (Ab7 conjugated as in Formula XI, DAR of 8) (antibody, human IgG1, lambda, L234A L235A, V domains shown, camptothecin analog linker-payload of Formula XI on cysteine thiols after full reduction, DAR of 8 per antibody; positions not given, Antibody-drug conjugate of Ab7; also called Ab7 (ADC column)) VH: QVQLVQSGAEVKKPGASVKVSCKASGYTFTNYYMHWVRQAPGQGLEWMGIINPSSGSASYAQKFQGRVTMTRDTSTSTVYMELSSLRSEDTAVYYCAREGVGRDILQAFDIWGQGTLVTVSS VL: QSVLTQPPSVSEAPRQRVTISCSGSSSNIGNNAVNWYQQLPGKAPKLLIYYDDLLPSGVSDRFSGSKSGTSASLAISGLQSEDEADYYCAAWDDSLNGHVFGGGTKLTVLG | 54.3
Ab6 ADC (Ab6 conjugated as in Formula XI, DAR of 8) (antibody, human IgG1, lambda, L234A L235A, V domains shown, camptothecin analog linker-payload of Formula XI on cysteine thiols after full reduction, DAR of 8 per antibody; positions not given, Antibody-drug conjugate of Ab6; also called Ab6 (ADC column)) VH: QVQLVQSGAEVKKPGASVKVSCKASGYTFTGYYMHWVRQAPGQGLEWMGIINPSGGSTTYAQKFQGRVTMTRDTSTSTVYMELSSLRSEDTAVYYCARGRLGTYFDYWGQGTLVTVSS VL: SYVLTQPPSVSVAPGQTARITCGGNNIGSKSVHWYQQKPGQAPVLVVYDDSDRPSGIPERFSGSNSGNTATLTISRVEAGDEADYYCQVWDRSSDQVVFGGGTKLTVLG | 60.8
Ab1a ADC (Ab1a conjugated as in Formula XI, DAR of 8) (antibody, human IgG1, kappa, L234A L235A, V domains shown, camptothecin analog linker-payload of Formula XI on cysteine thiols after full reduction, DAR of 8 per antibody; positions not given, Antibody-drug conjugate of Ab1a; also called Ab1a (ADC column)) VH: QVQLVQSGAQVKKPGASVKVSCKASGYTFTGYYIHWVRQAPGQGLEWMGWINPNSGGTNYAQKFQGRVTMTRDTSISTAYMELSRLRSDDTAVYFCAREDWDFDYWGQGTLVTVSS VL: EIVLTQSPGTLSLSPGERATLSCRTSQSVSSSYLAWYQQKPGQAPRLLIYGASNRATDIPDRFSGSGSGTDFTLTINRLEPEDFAVYYCQQYGSSPITFGQGTRLEIKR | 98.1

For the next question, use this binder.
[in] Tell me measured Cytotoxicity IC50, NCI H1781 cells for Ab5 ADC (Ab5 conjugated as in Formula XI, DAR of 8) (antibody, human IgG1, kappa, L234A L235A, V domains shown, camptothecin analog linker-payload of Formula XI on cysteine thiols after full reduction, DAR of 8 per antibody; positions not given, Antibody-drug conjugate of Ab5; also called Ab5 (ADC column)) VH: QVQLVQSGAEVKKPGASVKVSCKASGYTFTSYYVHWVRQAPGQGLEWMGIINPSIISTSYAQKFQARVTMTRDTSTSTVYMELSSLRSEDTAVYYCARGLNFDAFDIWGQGTLVTVSS VL: DIQLTQSPSFLSASVGDRVTITCRASQGISSYLAWYQQKPGKAPKLLIYAASTLQSGVPSRFSGSGSGTEFTLTISSLQPEDFATYYCQQLNNYPFTFGQGTKVEIKR please.
[out] 65.7
